Attribution: PubChem BioAssay (NCI)

Test system: A549/ATCC NSCLC
Assay: NCI-60 one-dose screen, 48 h
Details: 10 µM unless noted
Compounds without any hit were thinned out: in the full panel of roughly 83,000, 20% have a hit. Activity calls are given as the source filed them. Rule for the calls: active = growth percent below 10; inactive = the rest.
The reply should name one outcome from active, inactive

-- ask Just curious, what result did C[C@]12CC[C@@H]3c4ccc(O)cc4CC[C@H]3[C@@H]1CC[C@@H]2NS(=O)(=O)c1cccc(Br)c1 get here?
-- reply inactive

-- ask Just curious, what result did CC12CCCCC1C(C(N)=O)C(=O)O2 (centres undefined) get here?
-- reply inactive

-- ask Just curious, what result did O=C(Nc1nc(-c2ccccc2)cs1)c1cc(O)c(O)c(O)c1 get here?
-- reply inactive

-- ask Just curious, what result did COc1ccc(-c2nnc(COc3ccc(NC(=O)Nc4cc(C(F)(F)F)cc(C(F)(F)F)c4)cc3F)o2)cc1 get here?
-- reply active
